- Tested on: MS2 coat protein
- EXPERIMENTAL DETAILS: apparent Kd, MS2 coat protein; higher = weaker binding; RNA-MaP array; FMN 200 µM where present
- PARTICULARS: designed as: ON switch for flavin mononucleotide; no ligand
READOUT KIND: apparent Kd (nM)
Give the quantity in nM, number only.

Below are worked cases with known answers.
{"columns": ["PRIMARY SEQUENCE", "MEASUREMENT UNIT", "apparent Kd"],
 "data": [
  ["AAACAAACAACGCAGGAUAUGCAAAAACCCACAUGAGGAUCACCCAUGUCCCAACAACAAACAAAGCAGAAGGGCGAACAAACAAA", "nM", 105],
  ["UUAUGAUUAAGAGGAUAUAUACAACAUGAGGAUCACCCAUGUACCCAUGUAGUAGAAGGCUUAUUUUUAUAUAAUAAUAUAAUU", "nM", 143],
  ["GCGUUGUUGUAGAAGGUACAUGAAUACUUUUAUUACCUCAAGUAACAUGAGGAUCACCCAUGUAGUAAGGAUAUACAUGAACGC", "nM", 35.1],
  ["GGGUACAUCGGAGGAUAUCAUGUAAAUACAUGAGGAUCACCCAUGUCGAUGGAGACAUCGGAGAUUGAGAAGGCCGAUGUAGCG", "nM", 190],
  ["AUUUAGUGCGAGAAGGCGUGGUCACAUGAGGAUCACCCAUGUCAGUACACGAGGAUAUCGAUUCACUGUAUAAACACAAGUGAC", "nM", 53.8],
  ["GCUUUCGCAUGAGGAUAUGCUCGAGUUUAGAGAGCAGAAGGCAUGUCAUAAGACAUGAGGAUCACCCAUGUAGUUAAAAUUGCA", "nM", 164]
]}

*Q* MS2 coat protein / apparent Kd / `UGGUACUAGGGAGGAUAUGGGAAGAUACAUGAGGAUCACCCAUGUUUAAGAAUGCCGAGAGCCAACUAGAAGGCCCUAGUACCU` : value?
*A* 120

*Q* MS2 coat protein / apparent Kd / `UGUAUUAAUGGAGGAUAUCGAUAUCAAACAUGAGGAUCACCCAUGUUGAGGAUCACCCAUGUCCAUGAGAAGGCCGGCGUACUU` : value?
*A* 34.4

*Q* MS2 coat protein / apparent Kd / `AGGAGUAAAGGGAAUAACAUGAGGAUCACCCAUGUAUGGGAGAGAAGGCAUAUCGGAGGACGAUAUGAGGAUAUUUAAACUUUA` : value?
*A* 106

*Q* MS2 coat protein / apparent Kd / `UUACUCAUGUAAGGAUAUGCAGCCGAAACGGCUGCAGAAGGUACUAAAAUACAUGAGGAUCACCCAUGUCUUUUUAUUUUAGAC` : value?
*A* 197

*Q* MS2 coat protein / apparent Kd / `GUUAAGAACUAAGGAUAUUGAAUACAUAUGUUUAACAUGAGGAUCACCCAUGUGGGUUGCGGUAUCGAGAAGGUAGAAUAAUAG` : value?
*A* 115

*Q* MS2 coat protein / apparent Kd / `GAGAAGAGUAUAGGAUAUUAAGAAACAUGAGGAUCACCCAUGUAGUGAGUGUGAGAAGGGUAGGAGGUGGUAGGAGGAUCCAGG` : value?
*A* 22.3

*Q* MS2 coat protein / apparent Kd / `GGAUCCGCUUCCGCCACAUGAGGAUCACCCAUGUGUAUGAACAGAAGGGCGACCUCAAAGAGGGCGCAGGAUAUGUACUCGUAC` : value?
*A* 78.3

*Q* MS2 coat protein / apparent Kd / `UAUUAGAUCCGAGGAUAUCCUUAUUAGAAACAUGAGGAUCACCCAUGUAAAGGGAAUUAUUUGUAGGAGAAGGCGGAUUUAGUU` : value?
*A* 67.5

*Q* MS2 coat protein / apparent Kd / `AAAAGACAUGAGGAUCACCCAUGUAAAAACAUAGGAGGAUAUGUUUGGAAACUAGACUGAACAGAAGGCCUUUGUC` : value?
*A* 22.9

*Q* MS2 coat protein / apparent Kd / `CCGACGAAAAUCGGGCUACAUGAGGAUCACCCAUGUGCUUCACAGGAUAUGGUACGUAGUGAGUUCCAGAAGGGUGAUUAAUCU` : value?
*A* 205
